ASSAYED SYSTEM: Solute carrier organic anion transporter family member 1A2 (OATP1A2) (Homo sapiens, UniProt P46721)
Sequence (P46721 whole entry): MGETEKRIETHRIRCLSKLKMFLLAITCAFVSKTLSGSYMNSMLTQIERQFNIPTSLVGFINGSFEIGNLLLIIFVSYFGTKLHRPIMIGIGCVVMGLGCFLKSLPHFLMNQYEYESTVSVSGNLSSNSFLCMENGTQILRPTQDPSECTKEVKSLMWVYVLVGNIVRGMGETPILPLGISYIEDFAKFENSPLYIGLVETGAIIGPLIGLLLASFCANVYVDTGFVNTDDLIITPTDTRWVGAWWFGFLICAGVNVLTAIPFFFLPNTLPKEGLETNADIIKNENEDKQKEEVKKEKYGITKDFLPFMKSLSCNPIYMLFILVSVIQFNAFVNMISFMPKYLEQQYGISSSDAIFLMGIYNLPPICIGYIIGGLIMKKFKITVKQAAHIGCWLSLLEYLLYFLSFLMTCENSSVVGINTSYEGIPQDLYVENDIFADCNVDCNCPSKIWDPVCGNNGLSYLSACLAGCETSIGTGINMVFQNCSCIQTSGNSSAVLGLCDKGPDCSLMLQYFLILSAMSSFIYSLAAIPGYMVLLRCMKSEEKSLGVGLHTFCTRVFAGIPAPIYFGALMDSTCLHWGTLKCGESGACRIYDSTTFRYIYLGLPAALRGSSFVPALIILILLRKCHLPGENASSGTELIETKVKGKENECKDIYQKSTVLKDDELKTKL
ASSAY METHOD TEXT: TP_TRANSPORTER: uptake in Xenopus laevis oocytes
Format: functional, cell-based, Oocyte
EXPERIMENTAL CONDITIONS: Xenopus laevis oocytes expressing the transporter
Each item that follows carries a reported Km.
Use µM as the unit, but write only the number.

Item under review: CC1(C)SSC(C)(C)[C@@H](NC(=O)[C@@H](N)Cc2ccc(O)cc2)C(=O)NCC(=O)N[C@@H](Cc2ccccc2)C(=O)N[C@H]1C(=O)O . Reported Km?
202

New cases:
Item under review: CC(C)[C@H](NC(=O)[C@H](CCC(=O)O)NC(=O)[C@H](Cc1ccccc1)NC(=O)[C@@H](C)NC(=O)[C@@H](N)Cc1ccc(O)cc1)C(=O)N[C@H](C(=O)NCC(N)=O)C(C)C [DELTORPHIN II] . Reported Km?
330
